Assay: qHTS of pediatric cancer cell lines to identify multiple opportunities for drug repurposing: Primary screen for BT-12 cells (AID 1347101); further: nearly all actives have a fitted effect of over 25% in size
Settings: BT-12 viability, CellTiter-Glo luminescence, 48 h; series mostly up to 57.3 µM
Results filed as inconclusive are left out. Active and inactive are the calls of the source. The call rests on the fitted dose curve; in most records, active means well fitted cell-killing curve with a large enough effect; inconclusive means small, poorly fitted or top-dose-only effect; inactive means flat fitted curve, though single readings scatter.
Allowed answers: active, inactive

Before answering, review these 3 worked examples.
{"compound": "C[C@@H]1CC[C@@]2(OC1)O[C@H]1C[C@H]3[C@@H]4CC=C5C[C@@H](O[C@@H]6O[C@H](CO)[C@@H](O[C@@H]7O[C@@H](C)[C@H](O)[C@@H](O)[C@@H]7O)[C@H](O)[C@@H]6O[C@@H]6O[C@@H](C)[C@H](O)[C@@H](O)[C@@H]6O)CC[C@]5(C)[C@@H]4CC[C@]3(C)[C@@H]1[C@H]2C", "classLabel": "active"}
{"compound": "CC[C@@]1(O)C(=O)OCc2c1cc1n(c2=O)Cc2cc3ccccc3nc2-1", "classLabel": "active"}
{"compound": "CC1(C)CC/C(=C/c2ccc(Cl)cc2)C1(O)Cn1cncn1 (stereo not given)", "classLabel": "inactive"}

Query string: For "Cc1ccccc1-n1c(Cn2ncc3c(N)ncnc32)nc2cccc(C)c2c1=O" , which call appears in the assay record?
Result string: active

Query string: For "COC1=CC(C)=C[C@@H](C)[C@@H](O)[C@@H](C)CC(C)=CC=C[C@H](OC)[C@H]([C@@H](C)[C@@H](O)[C@H](C)[C@@]2(O)C[C@@H](O)[C@H](C)[C@@H](C(C)C)O2)OC1=O" , which call appears in the assay record?
Result string: active

Query string: For CC(N[C@H]1C[C@H]1c1ccccc1)c1ccc2c(c1)OCCO2 (stereo not given in full) , which call appears in the assay record?
Result string: inactive

Query string: For "CC(C)[C@]12O[C@@H]1[C@@H]1O[C@]13[C@]1(O[C@H]1C[C@@H]1C4=C(CC[C@@]13C)C(=O)OC4)[C@H]2O" , which call appears in the assay record?
Result string: active

Query string: For "c1cc2c(cc1[C@H]1OC[C@H]3[C@H]1CO[C@H]3c1ccc3c(c1)OCO3)OCO2" , which call appears in the assay record?
Result string: inactive

Query string: For "CC[C@@H]1[C@@H](C)O[C@@](O)([C@@H](C)[C@H](O)[C@H](C)[C@H]2OC(=O)C=CC=C[C@@H](C)[C@@H]([C@@H](C)[C@@H](O)[C@H](C)[C@@]3(O)C[C@H](O[C@H]4C[C@H](O)[C@H](O)[C@H](C)O4)[C@H](CC)[C@@H](C)O3)OC(=O)C=CC=C[C@@H]2C)C[C@H]1O[C@H]1C[C@H](O)[C@H](O)[C@H](C)O1" , which call appears in the assay record?
Result string: active

Query string: For "CSCC[C@@H](NC(=O)[C@@H](Cc1ccccc1)NC(=O)CNC(=O)CNC(=O)[C@@H](N)Cc1ccc(O)cc1)C(=O)O" , which call appears in the assay record?
Result string: inactive

* * *

Experiment: Quantitative High-Throughput drug screen in 47 multiple myeloma cell lines against the NCATS MIPE library collection: OCIMY7_PLB cell viability assay (AID 1918987); further: nearly all actives have a fitted effect of over 65% in size; further: potency means the concentration at half of the fitted maximal effect
Details: OCI-MY7 myeloma viability, CellTiter-Glo ATP, 48 h; series mostly up to 45.8 µM
Inconclusive results are not listed. The source made the active and inactive calls. Calls follow the shape of the dose curve; as a rule, active = well fitted cell-killing curve with a large enough effect; inconclusive = small, poorly fitted or top-dose-only effect, or effect the other way; inactive = no such curve, though single readings can be large or run the other way.
outcomeMeasure: Potency

{"molecule": "CCc1c(C(=O)C(N)=O)c2c(OCC(=O)O)cccc2n1Cc1ccccc1", "result": "inactive"}
{"molecule": "C[C@]12CC[C@H]3[C@@H](CCC4=CC(=O)CC[C@@]43C)[C@H]1CC[C@H]2O", "result": "inactive"}
{"molecule": "CCC(=O)OC1CCC2C3CCC4=CC(=O)CC[C@@]4(C)C3CC[C@]12C (stereo partly specified)", "result": "16.6 µM (active)"}
{"molecule": "C[C@](O)(COc1ccc(C#N)cc1)C(=O)Nc1ccc(C#N)c(C(F)(F)F)c1", "result": "26.4 µM (active)"}
{"molecule": "CC(=Cc1csc(C)n1)[C@@H]1C[C@H]2O[C@@H]2CCC[C@H](C)[C@@H](O)[C@@H](C)C(=O)C(C)(C)[C@@H](O)CC(=O)O1", "result": "inactive"}
{"molecule": "Cc1c(C(=O)c2cccc3ccccc23)c2cccc3c2n1[C@H](CN1CCOCC1)CO3", "result": "13.2 µM (active)"}
{"molecule": "N#C[C@H](O[C@@H]1O[C@H](CO[C@@H]2O[C@H](CO)[C@H](O)[C@H](O)[C@H]2O)[C@H](O)[C@H](O)[C@H]1O)c1ccccc1", "result": "10.5 µM (active)"}
{"molecule": "CC(C)[C@]12O[C@@H]1[C@@H]1O[C@]13[C@]1(O[C@H]1C[C@@H]1C4=C(CC[C@@]13C)C(=O)OC4)[C@H]2O", "result": "inactive"}
{"molecule": "O=c1[nH]c2ccc(Cl)cc2c(N[C@@H]2CN3CCC2CC3)c1-c1nc2ccccc2[nH]1", "result": "0.059 µM (active)"}
{"molecule": "NC1=NC(=O)N2CC12 (stereo unspecified)", "result": "20.9 µM (active)"}

The recorded Potency for "CCOC(=O)c1cncn1[C@H](C)c1ccccc1" is inactive

The recorded Potency for "C1=C2CCCN[C@H]2[C@@H]2C[C@H]1[C@@H]1CCCCN1C2" is inactive

The recorded Potency for "CC[C@H]1C=CC=CC[C@@H](C)[C@H](O)[C@@](C)(O)C(=O)[C@@H](C)[C@H](O)[C@@H](C)C(=O)[C@@H](C)[C@H](O)[C@@H](C)C=CC(=O)O[C@@H]2[C@@H](C)[C@H](CC1)O[C@]1(CC[C@H](C)[C@H](C[C@@H](C)O)O1)[C@H]2C" is 0.001 µM (active)

The recorded Potency for COc1cc([C@@H]2c3cc4c(cc3[C@@H](O)C3COC(=O)C32)OCO4)cc(OC)c1O (stereo partly specified) is 0.0526 µM (active)

The recorded Potency for "Cc1ccccc1-n1c(Cn2ncc3c(N)ncnc32)nc2cccc(C)c2c1=O" is 3.32 µM (active)

The recorded Potency for CO[C@H]1CCC(O[C@H]2C[C@H]([C@]3(C)CC[C@]4(C[C@H](O)[C@@H](C)[C@@H]([C@@H](C)C=C(C)C(=O)[C@H](C)C[C@H](C)C(=O)O)O4)O3)O[C@]3(O[C@@H]([C@H]4O[C@@](O)(CO)[C@H](C)C[C@H]4C)C[C@H]3C)[C@H]2C)O[C@H]1C (stereo partly specified) is 0.935 µM (active)
